Test: antimalarial activity against Dd2 strain (AID 2302)
Conditions: P. falciparum Dd2 in RBCs, LDH growth readout, 72 h; at 2 µM
Active and inactive are the calls of the source.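 How the source made its calls: active means growth inhibition above 50% at the single 2 µM test dose, taken to imply half-maximal potency below 2 µM; inactive means the rest.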
Hello, when you answer, please use one of the following outcomes: active, inactive

# example entries with known answers
O=C(Cn1c(CCc2cccc(F)c2F)nc(=O)c2cccnc21)N(Cc1ccc(-c2ccc(C(F)(F)F)cc2)cc1)C1CCN(C2CCSCC2)CC1 ... active
O=C(c1cc(C(=O)NC2CCCCC2)c(=O)n(C2CCCCC2)c1)c1cc(F)ccc1O ... active
CCCc1cc(OC)c(CC2c3cccc(O)c3CCN2C)cc1OC (centres undefined) ... active
COC(=O)CCCCOc1cc(Cc2cnc(N)nc2N)cc(OC)c1OC ... inactive
CN1CCC(C(=O)Nc2ccc(-c3ccc(-c4nc5ccc(C(F)(F)F)cc5[nH]4)s3)cc2)CC1 ... active
Cc1ccc2[nH]c(-c3ccc(C(=O)NCc4ccc(Cl)c(Cl)c4)cc3)nc2c1C ... inactive
CN(C)CCCOc1ccccc1CN1CC[C@H](NC(=O)c2ccc(Cl)c(Cl)c2)C1 ... active
O=S(=O)(NCCN1CCCC1)c1ccc(-c2cccc(CNC3Cc4ccccc4C3)c2)cc1F ... active

Pending compound:
For `CCc1cn(C)c2c(N3CCCC3=O)cc(C(=O)N[C@@H](Cc3ccccc3)[C@H](O)CNC(C)(C)CCCC(C)C)cc12` , which call appears in the assay record?
active

These entries and their values trace back to PubChem BioAssay.
